target: T1, Hu HER3: CD33-[Human HER3, residues 20-640]-TAG (human, UniProt P21860 20-640); assay: solution equilibrium titration (SET), IgG, ECL read-out
T1 construct: also called hu HER3-Tag; HER3-Tag; not shown: C-terminal TAG (e.g. FLAG TAG)
measured.quantity: Kd
Write the numeric value and append its unit.

Problem: Bench note: what Kd did MOR12603 (antibody, human IgG1, kappa, V domains shown, Tested as IgG) VH: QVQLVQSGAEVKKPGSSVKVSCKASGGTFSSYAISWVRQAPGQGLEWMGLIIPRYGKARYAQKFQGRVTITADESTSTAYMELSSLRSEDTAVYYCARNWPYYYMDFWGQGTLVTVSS VL: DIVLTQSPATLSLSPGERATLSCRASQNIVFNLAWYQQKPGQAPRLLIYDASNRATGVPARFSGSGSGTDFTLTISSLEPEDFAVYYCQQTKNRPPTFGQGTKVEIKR show?
Result: 2 nM
